Each recorded value in this set is attributed to the Immune Epitope Database (IEDB).

TARGET OF ASSAY: HLA-A*02:01
ASSAY: IEDB peptide-MHC binding, purified MHC/competitive/fluorescence; filed as Kd, often an IC50 or EC50 that approximates it; bounds were set here for any values at or beyond the usual limits of such assays
STATED CONDITIONS: source organism: Vibrio cholerae 2740-80
MEASURED QUANTITY: Kd

{"INPUT SEQUENCE": "HSYLWDHQM", "ENDPOINT RESULT": "≥ 20 µM"}

* * *

Examples of sequences with documented pIC50 follow.
TARGET OF ASSAY: HLA-A*11:01
ASSAY: IEDB peptide-MHC binding, purified MHC/competitive/fluorescence; bounds were set here for any values at or beyond the usual limits of such assays
STATED CONDITIONS: source organism: Vaccinia virus
pIC50: −log10 of the molar value.

{"INPUT SEQUENCE": "VSYNDYFNV", "TARGET OF ASSAY": "HLA-A*11:01", "RELATION QUALIFIER": "=", "pIC50": 4.84}
{"INPUT SEQUENCE": "LRYLLFGIK", "TARGET OF ASSAY": "HLA-A*11:01", "RELATION QUALIFIER": "≤", "pIC50": 3.89}
{"INPUT SEQUENCE": "YIKNIGNTK", "TARGET OF ASSAY": "HLA-A*11:01", "RELATION QUALIFIER": "=", "pIC50": 4.52}
{"INPUT SEQUENCE": "YKTLCDMIK", "TARGET OF ASSAY": "HLA-A*11:01", "RELATION QUALIFIER": "≤", "pIC50": 3.64}
